Quick reference: Ratio of the listed items.
Test system: Staphylococcus aureus
Assay: Ratio of MBC to MIC for Staphylococcus aureus CIP 54127
Format: functional
Answer as a number with no unit attached.

Some entries whose results are on file:
[
  {
    "compound": "CCOP(=O)(OCC)C(Nc1ccc(F)cc1)c1cc(Cn2cc(Cn3c(=O)cc(C)c4ccccc43)nn2)ccc1O (stereo unspecified)",
    "assay-result": 1.96
  },
  {
    "compound": "CCOP(=O)(OCC)C(Nc1ccc(F)cc1)c1cc(Cn2cc(Cn3c(=O)cc(C)c4cc(F)ccc43)nn2)ccc1O (stereo unspecified)",
    "assay-result": 1
  },
  {
    "compound": "CO[C@H]1/C=C/O[C@@]2(C)Oc3c(C)c(O)c4c(O)c(c(/C=N/N5CCN(C)CC5)c(O)c4c3C2=O)NC(=O)/C(C)=C\\C=C\\[C@H](C)[C@H](O)[C@@H](C)[C@@H](O)[C@@H](C)[C@H](OC(C)=O)[C@@H]1C [RIFAMPIN]",
    "assay-result": 1.88
  }
]

Ask | Using the record for CCOP(=O)(OCC)C(Nc1ccccc1Br)c1cc(Cn2cc(Cn3c(=O)cc(C)c4cc(Br)ccc43)nn2)ccc1O (stereo unspecified) , report its Ratio.
Reply | 2

Ask | Further, for CCOP(=O)(OCC)C(Nc1ccc(C)cc1)c1cc(Cn2cc(Cn3c(=O)cc(C)c4cc(F)ccc43)nn2)ccc1O (stereo unspecified) ?
Reply | 1

Ask | Further, for CCOP(=O)(OCC)C(Nc1ccccc1Cl)c1cc(Cn2cc(Cn3c(=O)cc(C)c4cc(Br)ccc43)nn2)ccc1O (stereo unspecified) ?
Reply | 1

* * *

Experiment: Cytotoxicity against African green monkey Vero A cells
Format: toxicity, cell-based
Conditions: chlorocebus sabaeus
Quick reference: CC50 of the listed items.

Some entries whose results are on file:
[
  {
    "compound": "CCOP(=O)(OCC)C(Nc1ccccc1Br)c1cc(Cn2cc(Cn3c(=O)cc(C)c4ccccc43)nn2)ccc1O (stereo not given)",
    "assay-result": "23.4 µM"
  },
  {
    "compound": "CCOP(=O)(OCC)C(Nc1ccc(I)cc1)c1cc(Cn2cc(Cn3c(=O)cc(C)c4cc(F)ccc43)nn2)ccc1O (stereo not given)",
    "assay-result": "> 100 µM"
  },
  {
    "compound": "CCOP(=O)(OCC)C(Nc1ccc(F)cc1)c1cc(Cn2cc(Cn3c(=O)cc(C)c4ccccc43)nn2)ccc1O (stereo not given)",
    "assay-result": "75.2 µM"
  }
]

Ask | Using the record for CCOP(=O)(OCC)C(Nc1ccccc1)c1cc(Cn2cc(Cn3c(=O)cc(C)c4cc(Br)ccc43)nn2)ccc1O (stereo not given) , report its CC50.
Reply | > 100 µM

Ask | Further, for CCOP(=O)(OCC)C(Nc1ccc(C)cc1)c1cc(Cn2cc(Cn3c(=O)cc(C)c4cc(Br)ccc43)nn2)ccc1O (stereo not given) ?
Reply | > 100 µM

Ask | Further, for CCOP(=O)(OCC)C(Nc1ccccc1)c1cc(Cn2cc(Cn3c(=O)cc(C)c4cc(F)ccc43)nn2)ccc1O (stereo not given) ?
Reply | > 100 µM

Ask | Further, for CCOP(=O)(OCC)C(Nc1ccccc1)c1cc(Cn2cc(Cn3c(=O)cc(C)c4ccccc43)nn2)ccc1O (stereo not given) ?
Reply | > 100 µM

Ask | Further, for CCOP(=O)(OCC)C(Nc1ccccc1OC)c1cc(Cn2cc(Cn3c(=O)cc(C)c4cc(Br)ccc43)nn2)ccc1O (stereo not given) ?
Reply | > 100 µM

Ask | Further, for `Cc1cc(=O)n(Cc2cn(Cc3ccc(O)c(C=O)c3)nn2)c2ccccc12` ?
Reply | > 100 µM

Ask | Further, for CCOP(=O)(OCC)C(Nc1ccccc1OC)c1cc(Cn2cc(Cn3c(=O)cc(C)c4ccccc43)nn2)ccc1O (stereo not given) ?
Reply | 77.2 µM

* * *

Tested on: Pseudomonas aeruginosa
Assay: Antibacterial activity against Pseudomonas aeruginosa CIP A22 assessed as reduction in bacterial growth by micro-broth dilution method
Format: functional
Define the label as true (1) when MIC is strictly less than 3 mM and as false (0) in all remaining cases.

Use these answered entries as a reference point.
[
  {
    "compound": "CCOP(=O)(OCC)C(Nc1ccc(C)cc1)c1cc(Cn2cc(Cn3c(=O)cc(C)c4ccccc43)nn2)ccc1O (stereo not given)",
    "discrete-label": "false (0)"
  },
  {
    "compound": "CO[C@H]1/C=C/O[C@@]2(C)Oc3c(C)c(O)c4c(O)c(c(/C=N/N5CCN(C)CC5)c(O)c4c3C2=O)NC(=O)/C(C)=C\\C=C\\[C@H](C)[C@H](O)[C@@H](C)[C@@H](O)[C@@H](C)[C@H](OC(C)=O)[C@@H]1C",
    "discrete-label": "true (1)"
  },
  {
    "compound": "CCOP(=O)(OCC)C(Nc1ccccc1Cl)c1cc(Cn2cc(Cn3c(=O)cc(C)c4cc(Br)ccc43)nn2)ccc1O (stereo not given)",
    "discrete-label": "true (1)"
  },
  {
    "compound": "CCOP(=O)(OCC)C(Nc1ccccc1OC)c1cc(Cn2cc(Cn3c(=O)cc(C)c4ccccc43)nn2)ccc1O (stereo not given)",
    "discrete-label": "true (1)"
  },
  {
    "compound": "CCOP(=O)(OCC)C(Nc1ccc(C)cc1)c1cc(Cn2cc(Cn3c(=O)cc(C)c4cc(F)ccc43)nn2)ccc1O (stereo not given)",
    "discrete-label": "false (0)"
  }
]

Ask | Quick check: MIC of CCOP(=O)(OCC)C(Nc1ccccc1Cl)c1cc(Cn2cc(Cn3c(=O)cc(C)c4ccccc43)nn2)ccc1O (stereo not given) under 3 mM?
Reply | true (1)

Ask | Further, for CCOP(=O)(OCC)C(Nc1ccccc1)c1cc(Cn2cc(Cn3c(=O)cc(C)c4cc(Br)ccc43)nn2)ccc1O (stereo not given) ?
Reply | false (0)

Ask | Further, for CCOP(=O)(OCC)C(Nc1ccc(I)cc1)c1cc(Cn2cc(Cn3c(=O)cc(C)c4cc(F)ccc43)nn2)ccc1O (stereo not given) ?
Reply | true (1)

Ask | Further, for CCOP(=O)(OCC)C(Nc1ccccc1Cl)c1cc(Cn2cc(Cn3c(=O)cc(C)c4cc(F)ccc43)nn2)ccc1O (stereo not given) ?
Reply | false (0)

Ask | Further, for `Cc1cc(=O)n(Cc2cn(Cc3ccc(O)c(C=O)c3)nn2)c2ccccc12` ?
Reply | false (0)

Ask | Further, for CCOP(=O)(OCC)C(Nc1ccc(F)cc1)c1cc(Cn2cc(Cn3c(=O)cc(C)c4ccccc43)nn2)ccc1O (stereo not given) ?
Reply | true (1)

Ask | Further, for CCOP(=O)(OCC)C(Nc1ccccc1Br)c1cc(Cn2cc(Cn3c(=O)cc(C)c4ccccc43)nn2)ccc1O (stereo not given) ?
Reply | false (0)

Ask | Further, for `Cc1cc(=O)n(Cc2cn(Cc3ccc(O)c(C=O)c3)nn2)c2ccc(F)cc12` ?
Reply | false (0)

Ask | Further, for CCOP(=O)(OCC)C(Nc1ccccc1OC)c1cc(Cn2cc(Cn3c(=O)cc(C)c4cc(Br)ccc43)nn2)ccc1O (stereo not given) ?
Reply | false (0)

Ask | Further, for CCOP(=O)(OCC)C(Nc1ccccc1)c1cc(Cn2cc(Cn3c(=O)cc(C)c4cc(F)ccc43)nn2)ccc1O (stereo not given) ?
Reply | false (0)

* * *

Test: Cytotoxicity against human HeLa-RH cells
Assay type: toxicity, cell-based
Quick reference: CC50 of the listed items.
# number only, unit µM dropped from output

Ask | Using the record for `Cc1cc(=O)n(Cc2cn(Cc3ccc(O)c(C=O)c3)nn2)c2ccc(F)cc12` , report its CC50.
Reply | 14.5

Ask | Further, for CCOP(=O)(OCC)C(Nc1ccc(F)cc1)c1cc(Cn2cc(Cn3c(=O)cc(C)c4ccccc43)nn2)ccc1O (stereo unspecified) ?
Reply | 83.8

Ask | Further, for CCOP(=O)(OCC)C(Nc1ccccc1Cl)c1cc(Cn2cc(Cn3c(=O)cc(C)c4cc(Br)ccc43)nn2)ccc1O (stereo unspecified) ?
Reply | 9.88

Ask | Further, for CCOP(=O)(OCC)C(Nc1ccc(C)cc1)c1cc(Cn2cc(Cn3c(=O)cc(C)c4cc(Br)ccc43)nn2)ccc1O (stereo unspecified) ?
Reply | 29.1

* * *

Tested on: Escherichia coli
Assay: Ratio of MBC to MIC for Escherichia coli CIP 53154
Type: functional
outcome-measure: Ratio
Answer as a number with no unit attached.

Some entries whose results are on file:
[
  {
    "compound": "CCOP(=O)(OCC)C(Nc1ccccc1)c1cc(Cn2cc(Cn3c(=O)cc(C)c4cc(Br)ccc43)nn2)ccc1O (stereo not drawn)",
    "Ratio": 1.98
  },
  {
    "compound": "CCOP(=O)(OCC)C(Nc1ccc(F)cc1)c1cc(Cn2cc(Cn3c(=O)cc(C)c4cc(Br)ccc43)nn2)ccc1O (stereo not drawn)",
    "Ratio": 1
  },
  {
    "compound": "CCOP(=O)(OCC)C(Nc1ccc(F)cc1)c1cc(Cn2cc(Cn3c(=O)cc(C)c4ccccc43)nn2)ccc1O (stereo not drawn)",
    "Ratio": 2.04
  }
]

Ask | Recorded Ratio for CCOP(=O)(OCC)C(Nc1ccccc1Br)c1cc(Cn2cc(Cn3c(=O)cc(C)c4cc(Br)ccc43)nn2)ccc1O (stereo not drawn) with Escherichia coli, please?
Reply | 2.02

Ask | Further, for CCOP(=O)(OCC)C(Nc1ccc(C)cc1)c1cc(Cn2cc(Cn3c(=O)cc(C)c4ccccc43)nn2)ccc1O (stereo not drawn) ?
Reply | 1
